src = ChEMBL document CHEMBL4364313

Property: Ki; scope: individual compounds
target: D(2) dopamine receptor (Homo sapiens, UniProt P14416)
Sequence (P14416 whole entry): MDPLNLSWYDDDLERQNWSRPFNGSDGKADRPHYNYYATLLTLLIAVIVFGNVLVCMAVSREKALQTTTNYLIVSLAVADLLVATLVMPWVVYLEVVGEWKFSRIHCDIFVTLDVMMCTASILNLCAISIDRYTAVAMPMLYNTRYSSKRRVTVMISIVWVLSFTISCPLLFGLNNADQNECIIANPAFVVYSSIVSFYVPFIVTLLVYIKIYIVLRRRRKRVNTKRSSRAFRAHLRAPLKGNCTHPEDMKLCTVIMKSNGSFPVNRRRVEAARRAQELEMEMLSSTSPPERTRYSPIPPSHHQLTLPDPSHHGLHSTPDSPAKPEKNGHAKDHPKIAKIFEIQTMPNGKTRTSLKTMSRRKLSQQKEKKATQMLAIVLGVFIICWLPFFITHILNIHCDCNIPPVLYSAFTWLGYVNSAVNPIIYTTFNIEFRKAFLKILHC

>  <compound>
O=c1c(-c2ccc(F)cc2)c2n(c(=O)n1CCCCN1CCCC(c3c[nH]c4ccc(F)cc34)C1)CCCC2 (centres undefined)

>  <Ki>
1.05 µM

$$$$
>  <compound>
O=c1c(-c2ccc(Cl)cc2)c2n(c(=O)n1CCCCN1CCCC(c3c[nH]c4ccccc34)C1)CCCC2 (centres undefined)

>  <Ki>
1.65 µM

$$$$
>  <compound>
COc1ccc(-c2c3n(c(=O)n(CCCCN4CCCC(c5c[nH]c6ccc(OC)cc56)C4)c2=O)CCCC3)cc1 (centres undefined)

>  <Ki>
1.8 µM

$$$$
>  <compound>
O=c1c(-c2ccccc2)c2n(c(=O)n1CCCCN1CCCC(c3c[nH]c4ccccc34)C1)CCCC2 (centres undefined)

>  <Ki>
2.35 µM

$$$$

====

target: 5-hydroxytryptamine receptor 7 (Homo sapiens, UniProt P34969)
Sequence (P34969 whole entry): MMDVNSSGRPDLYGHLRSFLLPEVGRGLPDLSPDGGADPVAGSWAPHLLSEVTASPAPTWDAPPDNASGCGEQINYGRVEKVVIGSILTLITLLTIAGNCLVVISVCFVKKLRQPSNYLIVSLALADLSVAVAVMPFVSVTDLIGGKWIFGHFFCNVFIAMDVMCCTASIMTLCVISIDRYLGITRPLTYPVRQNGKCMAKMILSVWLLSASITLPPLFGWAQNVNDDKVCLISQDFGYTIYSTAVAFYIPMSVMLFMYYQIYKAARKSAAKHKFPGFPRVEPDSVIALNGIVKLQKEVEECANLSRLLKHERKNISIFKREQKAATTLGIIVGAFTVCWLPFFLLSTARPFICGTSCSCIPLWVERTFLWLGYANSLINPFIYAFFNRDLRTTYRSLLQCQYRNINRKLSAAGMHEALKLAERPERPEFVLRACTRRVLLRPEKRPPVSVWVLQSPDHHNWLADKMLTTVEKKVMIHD
pKi: −log10 of the molar value.

>  <molecule>
O=c1c(-c2ccccc2F)c2n(c(=O)n1CCCCN1CCCC(c3c[nH]c4ccccc34)C1)CCCC2 (stereo not drawn)

>  <pKi>
5.61

$$$$
>  <molecule>
COc1ccc(-c2c3n(c(=O)n(CCCCN4CCCC(c5c[nH]c6ccc(OC)cc56)C4)c2=O)CCCC3)cc1 (stereo not drawn)

>  <pKi>
6.26

$$$$
>  <molecule>
O=c1c(-c2ccccc2Cl)c2n(c(=O)n1CCCCN1CCCC(c3c[nH]c4ccccc34)C1)CCCC2 (stereo not drawn)

>  <pKi>
5.87

$$$$

====

Tested on: Mus musculus
assay_text: Induction of hypothermia in CD-1 mouse assessed as change in body temperature at 20 mg/kg, ip treated for 30 mins and measured after 30 mins by thermometric method
Format: functional, organism-based

>  <compound>
O=c1c(-c2ccccc2Cl)c2n(c(=O)n1CCCCN1CCCC(c3c[nH]c4ccccc34)C1)CCCC2 (stereo unspecified)

>  <endpoint_unit>
°C

>  <deltaT>
-0.8

$$$$
>  <compound>
O=c1c(-c2ccc(F)cc2)c2n(c(=O)n1CCCCN1CCCC(c3c[nH]c4ccccc34)C1)CCCC2 (stereo unspecified)

>  <endpoint_unit>
°C

>  <deltaT>
0.1

$$$$
>  <compound>
O=c1c(-c2ccc(F)cc2)c2n(c(=O)n1CCCCN1CCCC(c3c[nH]c4ccc(F)cc34)C1)CCCC2 (stereo unspecified)

>  <endpoint_unit>
°C

>  <deltaT>
-0.6

$$$$
>  <compound>
O=c1c(-c2ccc(Cl)cc2)c2n(c(=O)n1CCCCN1CCCC(c3c[nH]c4ccccc34)C1)CCCC2 (stereo unspecified)

>  <endpoint_unit>
°C

>  <deltaT>
0.3

$$$$
>  <compound>
O=c1c(-c2ccccc2F)c2n(c(=O)n1CCCCN1CCCC(c3c[nH]c4ccccc34)C1)CCCC2 (stereo unspecified)

>  <endpoint_unit>
°C

>  <deltaT>
-0.8

$$$$
>  <compound>
O=c1c(-c2ccccc2)c2n(c(=O)n1CCCCN1CCCC(c3c[nH]c4ccccc34)C1)CCCC2 (stereo unspecified)

>  <endpoint_unit>
°C

>  <deltaT>
-0.6

$$$$

====

assay_text: Half life in human liver microsomes at 1 uM measured for 5 to 60 mins under shaking condition in presence of NADPH by LCMS analysis
Assay type: ADME, Microsome
Below is a list of entries, each paired with its recorded half-life at 1 µM value.
measured_endpoint: half-life at 1 µM

>  <compound>
O=c1c(-c2ccc(F)cc2)c2n(c(=O)n1CCCCN1CCCC(c3c[nH]c4ccccc34)C1)CCCC2 (configuration not stated)

>  <meas_value>
7 min

$$$$
>  <compound>
O=c1c(-c2ccccc2Cl)c2n(c(=O)n1CCCCN1CCCC(c3c[nH]c4ccccc34)C1)CCCC2 (configuration not stated)

>  <meas_value>
7 min

$$$$
>  <compound>
COc1ccc(-c2c3n(c(=O)n(CCCCN4CCCC(c5c[nH]c6ccc(OC)cc56)C4)c2=O)CCCC3)cc1 (configuration not stated)

>  <meas_value>
7 min

$$$$
>  <compound>
O=c1c(-c2ccccc2)c2n(c(=O)n1CCCCN1CCCC(c3c[nH]c4ccccc34)C1)CCCC2 (configuration not stated)

>  <meas_value>
11.1 min

$$$$
>  <compound>
O=c1c(-c2ccc(F)cc2)c2n(c(=O)n1CCCCN1CCCC(c3c[nH]c4ccc(F)cc34)C1)CCCC2 (configuration not stated)

>  <meas_value>
6.2 min

$$$$
>  <compound>
O=C1CC2(CCCC2)CC(=O)N1CCCCN1CCN(c2ncccn2)CC1

>  <meas_value>
6.6 min

$$$$
>  <compound>
O=c1c(-c2ccccc2F)c2n(c(=O)n1CCCCN1CCCC(c3c[nH]c4ccccc34)C1)CCCC2 (configuration not stated)

>  <meas_value>
12 min

$$$$
